Biological target: Human recombinant 5-LO (Homo sapiens)
Construct: purchased Cayman Chemical
Sequence (P09917 1-674): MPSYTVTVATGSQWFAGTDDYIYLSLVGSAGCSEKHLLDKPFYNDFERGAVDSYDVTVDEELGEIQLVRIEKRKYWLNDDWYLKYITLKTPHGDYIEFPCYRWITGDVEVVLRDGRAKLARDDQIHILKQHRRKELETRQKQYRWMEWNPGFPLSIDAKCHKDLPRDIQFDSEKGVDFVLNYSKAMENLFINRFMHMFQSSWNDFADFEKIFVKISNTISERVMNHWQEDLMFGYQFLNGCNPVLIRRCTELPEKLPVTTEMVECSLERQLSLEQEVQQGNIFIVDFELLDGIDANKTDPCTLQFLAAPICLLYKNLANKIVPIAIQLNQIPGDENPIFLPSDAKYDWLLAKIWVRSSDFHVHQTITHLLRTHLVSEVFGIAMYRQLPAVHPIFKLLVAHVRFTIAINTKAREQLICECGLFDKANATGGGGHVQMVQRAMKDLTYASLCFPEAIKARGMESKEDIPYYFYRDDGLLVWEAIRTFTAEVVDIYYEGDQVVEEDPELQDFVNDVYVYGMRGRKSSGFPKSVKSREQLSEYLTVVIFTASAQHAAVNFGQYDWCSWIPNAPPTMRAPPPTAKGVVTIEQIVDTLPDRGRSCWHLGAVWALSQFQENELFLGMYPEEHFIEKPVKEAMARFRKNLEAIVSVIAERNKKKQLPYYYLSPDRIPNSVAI
Assay: Redox absorbance assay (13(S)-HpODE absorbance at 234 nm, pseudo-peroxidase activity)
Format: biochemical
Conditions: 10 µM inhibitor, absorbance at 234 nm, change over 180 seconds; average ± SD of triplicate
observed-property: Redox absorbance, Δabs

Take a look at these entries with their results.
[
  {
    "molecule": "O=C(O)C=Cc1ccc(O)c(O)c1 [Caffeic acid, 3,4-dihydroxy cinnamic acid]",
    "Redox absorbance, Δabs": 0.005
  },
  {
    "molecule": "CC(c1cc2ccccc2s1)N(O)C(N)=O (stereo not shown)",
    "Redox absorbance, Δabs": "−0.025"
  },
  {
    "molecule": "CCCCCCC(Sc1nc(Cl)cc(Nc2cccc(C)c2C)n1)C(=O)O (stereo not shown)",
    "Redox absorbance, Δabs": 0.008
  },
  {
    "molecule": "N#CC(=Cc1ccc(O)c(O)c1)C(=O)OCC=Cc1ccccc1",
    "Redox absorbance, Δabs": 0.015
  },
  {
    "molecule": "COc1ccc(/C=C2\\SC(c3ccc(Cl)cc3)=NC2=O)cc1",
    "Redox absorbance, Δabs": 0.014
  }
]

A. CC(Cc1ccc(O)c(O)c1)C(C)Cc1ccc(O)c(O)c1 (stereo not shown)
B. Cn1nccc1-c1ccc(Sc2cccc(C3(C(N)=O)CCOCC3)c2)cc1
Incoming: Pick one, A or B : lowest reported Redox absorbance, Δabs. Selection: enter the item's label.
Outgoing: A

* * *

target: Human recombinant 5-LO (Homo sapiens); test: Redox fluorescence assay (remaining 13(S)-HpODE by H2DCFDA fluorescence after pseudo-peroxidase reaction)
observed-property: EC50 (µM)

I. CCCCCCC(Sc1nc(Cl)cc(Nc2cccc(C)c2C)n1)C(=O)O (stereo not shown)
II. N#CC(=Cc1ccc(O)c(O)c1)C(=O)OCC=Cc1ccccc1
Incoming: Name the one with the greater EC50 value, either I or II as given. Selection: enter the item's label.
Outgoing: I
